# Test system: PPARg:RXRa 30nM:10nM, anti-RXR (NR concentration 30 nM, RXRa partner concentration 10 nM)
# method: PBM binding z-score (relative to random genomic background probes); higher = stronger binding; sequences stand for … in GC…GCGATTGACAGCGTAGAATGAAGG
measurement.kind: PBM binding z-score
Write the value as a bare number.

Past entries and their recorded results:
AATACAGGGTCACTAGGCCAGAGTCGGTACGAAT ... 3.03
TATACATGGTCAAAGGCCAGAGTACGAATGTCGA ... 2.32

Task item: Indicate its recorded PBM binding z-score; the sequence in question is ATCTCTAGGTAACCAAGTTCAGTGACTGCCGAAC
Reply: 0.402

Task item: Indicate its recorded PBM binding z-score; the sequence in question is TCGTGTAGGTTAGTCGGGGCATTCAGCCAACATA
Reply: 2.34

###

# Tested on: PPARg DBDmut IVT, anti-PPARg (DBD mutation: PPARg1 K132A/R137A, NR concentration 270 nM)
# method: PBM binding z-score (relative to random genomic background probes); higher = stronger binding; sequences stand for … in GC…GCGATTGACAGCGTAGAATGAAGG
Note to self: class = bucket of PBM binding z-score, per group 1 = under -0.04, group 2 = from -0.04 up to 0.7, group 3 = 0.7 and over

The examples below pair each entry with its known result.
GATACATGGTCAAGGCCAGAGTACGCGTATTGAT ... group 2
TCTAGTTGGTCCCGGAGGTCACACACGACGGGTA ... group 3
CCTAGTTGGTCAGGAGGTCACTCACCGGATATGA ... group 2
AATATTAGTTGACTTAGGGCAACCGATACGACGC ... group 2

Task item: State the class of the sequence shown: CCGAATAGGTTATGGGGCATTCAGGCAACGGTGA
Reply: group 1

Task item: State the class of the sequence shown: ACTAGTTCGTCAGCTGAGGTCACACACAATTCGG
Reply: group 3

Task item: State the class of the sequence shown: TCTTGTAGATCAAGCAGGTTAAGACAGCCTGAGT
Reply: group 2

Task item: State the class of the sequence shown: ACTAGCAGGCCAAGTTTGGGTCACTCCAACAAAG
Reply: group 1

Task item: State the class of the sequence shown: AGAACGAGGTCAATGAGTTGATAGCACGGGTGGC
Reply: group 3

Task item: State the class of the sequence shown: CCTACTGGGCCATTCAGAGGTCATTGGTCATATG
Reply: group 2

Task item: State the class of the sequence shown: TTACCAAGGTGAAGGTCGATGATCCCTCTGTAGA
Reply: group 1

###

# Tested on: LXRa homodimer (NR concentration 270 nM)
# method: PBM binding z-score (relative to random genomic background probes); higher = stronger binding; sequences stand for … in GC…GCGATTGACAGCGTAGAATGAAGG
Label T when PBM binding z-score is at or above 0.2; otherwise label F.

The examples below pair each entry with its known result.
AGAATGAGGTTATACGTAGAACAGGGAAGAAAGT ... F
AGACCGAGGGCACGCTGAGTTGATAGCAGAGTAG ... F
TTACCAAGGTGAAGGTGGTTGATCCCTCTGTAGA ... F
ACTCCGAGGACAAAGGTCAGAGCTACGCCAGTGA ... T
GCGACTGCGGCAAAGCAGGTTACCATAAGGTTGG ... F
ATCTCTTGGTAAAGATAGTTCAGTGAATGCAAAT ... T

Task item: Please tell me: is the sequence TCATACAGGTAATACAGGTGAAAGTCGGCATCTA at or over 0.2 in terms of PBM binding z-score?
Reply: T

Task item: Please tell me: is the sequence AGAATGAGGGTAAGATCAGGGAAACAGAATACAT at or over 0.2 in terms of PBM binding z-score?
Reply: F

Task item: Please tell me: is the sequence CGAAATAGGTCAAGGACAGTGAATCTCCGCACGC at or over 0.2 in terms of PBM binding z-score?
Reply: T

Task item: Please tell me: is the sequence CGTCCCAGGTCAAGGTCAGTGAAAGAGACTCGAA at or over 0.2 in terms of PBM binding z-score?
Reply: T

Task item: Please tell me: is the sequence CAAACTAGGTCACGCAAGGTCAAAGTCGAATGAC at or over 0.2 in terms of PBM binding z-score?
Reply: T

Task item: Please tell me: is the sequence CCTACTGGGCCATTTAGAGGTCATTGATCATATG at or over 0.2 in terms of PBM binding z-score?
Reply: T

Task item: Please tell me: is the sequence TCGAGTAGGATAGTCGGGGCATTCAGCCAACATA at or over 0.2 in terms of PBM binding z-score?
Reply: F

Task item: Please tell me: is the sequence TGAATTAGGTTATAAGATCAGGGAACGTTGCAAA at or over 0.2 in terms of PBM binding z-score?
Reply: F

Task item: Please tell me: is the sequence CCTGCTAGGTCATGGGCAGCTAATCTACAGTATG at or over 0.2 in terms of PBM binding z-score?
Reply: F

Task item: Please tell me: is the sequence TCTGCTAGGTCAACCATGGTCAGCTAATCTGCTA at or over 0.2 in terms of PBM binding z-score?
Reply: F
